Test system: P. aeruginosa PΔ3-Pore
Experiment: MIC by two-fold dilution, barrierless PΔ3-Pore
Assay type: cell-based, Pseudomonas aeruginosa
Conditions: Pseudomonas aeruginosa, PΔ3-Pore, LB broth, Table 1
experimental-endpoint: MIC

Check out these entries, answers already filled in.
molecule: NC(=O)Cc1cccc(C(=O)c2ccccc2)c1N [Nepafenac]
target-or-system: P. aeruginosa PΔ3-Pore
experimental-endpoint: MIC
result: > 1000 µM

molecule: CC(C)Nc1cccnc1N1CCN(C(=O)c2cc3cc(NS(C)(=O)=O)ccc3[nH]2)CC1 [Delavirdine]
target-or-system: P. aeruginosa PΔ3-Pore
experimental-endpoint: MIC
result: > 1000 µM

molecule: COCCc1ccc(OCC(O)CNC(C)C)cc1 (stereo not shown) [Metoprolol]
target-or-system: P. aeruginosa PΔ3-Pore
experimental-endpoint: MIC
result: > 1000 µM

Query molecule follows.
Given Cc1cc(C(C)(C)C)c(O)c(C)c1CC1=NCCN1 [Oxymetazoline] , respond with its MIC. 1000 µM

###

System: P. aeruginosa PΔ3 cells;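 also: slope of accumulation versus external concentration fitted as a line through zero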
Conditions: 40 min incubation, 10-80 µM
Structures can show the parent of a compound that is named as a salt.
experimental-endpoint: Concentration slopes of accumulation, PΔ3_40 min
Note: the reply should be a number with no unit written.

# example entries with known answers
molecule: COCCCC/C(=N\OCCN)c1ccc(C(F)(F)F)cc1
measured-number: 4.97

molecule: NC(N)=Nc1nc(CSCCC(N)=NS(N)(=O)=O)cs1
measured-number: 4.38

molecule: CN1C[C@H](C(=O)N[C@]2(C)O[C@@]3(O)[C@@H]4CCCN4C(=O)[C@H](Cc4ccccc4)N3C2=O)C=C2c3cccc4[nH]cc(c34)C[C@H]21 [OU-0000834, Ergotamine Tartrate]
measured-number: 13.59

molecule: CC1CCc2c(N3CCC(O)CC3)c(F)cc3c(=O)c(C(=O)O)cn1c23 (stereo not shown)
measured-number: 9.79

molecule: CCOC(=O)NC(=S)Nc1ccccc1NC(=S)NC(=O)OCC [OU-0000837, Thiophanate]
measured-number: 1.80

Input CC(=O)NC[C@H]1CN(c2ccc(N3CCOCC3)c(F)c2)C(=O)O1 , output reported Concentration slopes of accumulation, PΔ3_40 min. 25.30

Quickly give me recorded Concentration slopes of accumulation, PΔ3_40 min for CN1CCN(c2cc3c(cc2F)c(=O)c(C(=O)O)cn3-c2ccc(F)cc2)CC1 5.02

###

The entries below are paired with their reported Concentration slopes of accumulation, PAO1-Pore_1 min.
Test system: P. aeruginosa PAO1-Pore cells
Experiment: LC–MS quantification of intracellular accumulation, PAO1-Pore;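 also: slope of accumulation versus external concentration fitted as a line through zero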
Details: 1 min incubation, 10-80 µM
Method: PAO1-Pore and PΔ3-Pore were grown at 37 °C overnight with shaking at 225 rpm in 50 mM MOPS-M9 (pH 7.2) Minimal Medium supplemented with 1% glycerol[42],[43]. The next day, cells were sub-cultured (1.5:100) in fresh MOPS-M9 medium and grown for 16 h. […] For the compound quantification, 5 µL of solution was analyzed in triplicate. […] Samples were processed in positive ion mode. […] Data were analyzed using Agilent Masshunter workstation quantitative analysis v. […]
Structures can show the parent of a compound that is named as a salt.
Give the figure by itself; no unit, no explanation.

Would you please look over these solved cases?
compound: CC(C)(C)OC(=O)N1[C@H](CCC2CCCCC2)CNC(=O)[C@@H]1Cc1cc(F)cc(F)c1
target-or-system: P. aeruginosa PAO1-Pore cells
measured-number: 37.26
//
compound: O=C1N[C@@H](Cc2c[nH]c3ccccc23)C(=O)N2CCC[C@@H]12
target-or-system: P. aeruginosa PAO1-Pore cells
measured-number: 3.51
//
compound: C[C@H]1COc2c(N3CCN(C)CC3)c(F)cc3c(=O)c(C(=O)O)cn1c23
target-or-system: P. aeruginosa PAO1-Pore cells
measured-number: 6.98

Item Cc1cc(C)nc(NS(=O)(=O)c2ccc(N)cc2)n1 : provide Concentration slopes of accumulation, PAO1-Pore_1 min 1.53

Please report Concentration slopes of accumulation, PAO1-Pore_1 min for the following compound: CC(C)NCC(O)c1ccc(NS(C)(=O)=O)cc1 (stereo not shown) [OU-0032507, Sotalol HCl] 8.24

Name the recorded Concentration slopes of accumulation, PAO1-Pore_1 min of the item COc1cnc(NS(=O)(=O)c2ccc(N)cc2)nc1 in your answer. 3.10

Read off the recorded Concentration slopes of accumulation, PAO1-Pore_1 min for CC[C@H]1CN2CCc3cc(OC)c(OC)cc3[C@@H]2C[C@@H]1C[C@H]1NCCc2cc(OC)c(OC)cc21.Cl.Cl [OU-0032504, Emetine DIHCl] 1.29

Specify measured Concentration slopes of accumulation, PAO1-Pore_1 min for O=C(O)c1cn(C2CC2)c2cc(N3CCNCC3)c(F)cc2c1=O . 3.53

Respond only with Concentration slopes of accumulation, PAO1-Pore_1 min recorded for CCCC[C@H]1CNC(=O)[C@H](Cc2cc(F)cc(F)c2)N1 23.40

Using known records, supply Concentration slopes of accumulation, PAO1-Pore_1 min for NC(N)=Nc1nc(CSCCC(N)=NS(N)(=O)=O)cs1 3.94

Read the entry COc1ccc(CCN(C)CCCC(C#N)(c2ccc(OC)c(OC)c2)C(C)C)cc1OC (stereo not shown) [OU-0000734, Verapamil HCl] and write its reported Concentration slopes of accumulation, PAO1-Pore_1 min. 16.77

Give the reported Concentration slopes of accumulation, PAO1-Pore_1 min for this compound. COc1cccc2c1C(=O)c1c(O)c3c(c(O)c1C2=O)C[C@@](O)(C(=O)CO)C[C@@H]3O[C@H]1C[C@H](N)[C@H](O)[C@H](C)O1 3.78

Determine its reported Concentration slopes of accumulation, PAO1-Pore_1 min: C[C@@H]1CN(c2c(F)c(N)c3c(=O)c(C(=O)O)cn(C4CC4)c3c2F)C[C@H](C)N1 8.17

Source of measurements: paper PMC9114115
